- assay-system: T1, human TL1A (Fitzgerald #30R-AT070) (human, UniProt O95150 72-251, limits assumed)
- T1 construct: Coated on the ELISA plate at 1 ug/mL; also called TNFSF15
- T1 sequence (looked up): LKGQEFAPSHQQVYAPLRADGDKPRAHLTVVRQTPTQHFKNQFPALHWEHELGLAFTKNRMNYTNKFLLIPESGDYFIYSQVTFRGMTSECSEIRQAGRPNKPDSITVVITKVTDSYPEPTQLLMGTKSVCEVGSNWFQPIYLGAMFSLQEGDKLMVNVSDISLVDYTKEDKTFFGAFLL
- method-notes: ELISA titration, coated human TL1A, culture supernatant
outcome-measure: Kd
Phrase the answer as number then unit, nothing more needed.

Input line: What does the data say about its Kd? Entry: A63 (antibody, human IgG1, V domains shown, human IgG1/kappa (pFuse vectors), culture supernatant) VH: QVQLVQSGAEVKKPGASVKVSCKASGFDIQDTYMHWVRQAPGQGLEWMGRIEPASGHVKYDPKFQGRVTMTRDTSTSTVYMELSSLRSEDTAVYYCARSGGLPDWWGQGTTVTVSS VL: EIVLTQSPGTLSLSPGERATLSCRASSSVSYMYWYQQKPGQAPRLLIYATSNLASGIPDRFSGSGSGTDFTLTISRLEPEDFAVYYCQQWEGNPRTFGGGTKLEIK
Output line: 0.132 nM

Input line: What does the data say about its Kd? Entry: A59 (antibody, human IgG1, V domains shown, human IgG1/kappa (pFuse vectors), culture supernatant) VH: QVQLVQSGAEVKKPGASVKVSCKASGFDIQDTYMHWVKQRPGQGLEWMGRIEPASGHIKYDPKFQGRVTMTRDTSTSTVYMELSSLRSEDTAVYYCARSGGLPDWWGQGTTVTVSS VL: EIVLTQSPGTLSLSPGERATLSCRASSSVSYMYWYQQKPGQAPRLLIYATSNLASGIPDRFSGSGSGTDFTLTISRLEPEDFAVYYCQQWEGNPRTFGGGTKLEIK
Output line: 0.136 nM

Input line: What does the data say about its Kd? Entry: A95 (antibody, human IgG1, V domains shown, human IgG1/kappa (pFuse vectors), culture supernatant) VH: QVQLVQSGAEVKKPGASVKVSCKASGFDIQDTYMHWVRQAPGQGLEWMGRIEPASGHIKYDPKFQGRATITTDTSTSTVYMELSSLRSEDTAVYYCARSGGLPDWWGQGTTVTVSS VL: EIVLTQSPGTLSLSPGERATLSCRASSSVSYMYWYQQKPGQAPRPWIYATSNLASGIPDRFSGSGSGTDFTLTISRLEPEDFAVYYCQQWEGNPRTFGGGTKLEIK
Output line: 0.105 nM
